# Subject Of Test: Bcl-xL (Homo sapiens (Human))
# Sequence (Q07817 whole entry): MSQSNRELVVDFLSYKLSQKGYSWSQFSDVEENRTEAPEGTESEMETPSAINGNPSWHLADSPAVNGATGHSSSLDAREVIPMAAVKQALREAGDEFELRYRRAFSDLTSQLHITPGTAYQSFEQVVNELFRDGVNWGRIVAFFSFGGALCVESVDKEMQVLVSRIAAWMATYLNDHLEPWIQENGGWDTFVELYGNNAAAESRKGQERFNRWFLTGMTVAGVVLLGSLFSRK
# Assay Notes: Fluorescence polarization competition assay, Bcl-xL
# Format: binding
# Protocol Conditions: Ki from IC50 by Nikolovska-Coleska equation; NA = no activity; read-out: Bcl-xL Ki
pKi values, listed per item
pKi here is simply -log10 of the concentration when that concentration is written in mol/L.

Req: Quick check: pKi on Bcl-xL (Homo sapiens (Human)), item CC(C)CN(c1ccc(O)c(C(=O)O)c1)S(=O)(=O)c1ccccc1 [JY-5-296 18ba] ?
Resp: 4.31

Req: Quick check: pKi on Bcl-xL (Homo sapiens (Human)), item O=C(O)c1cc(S(=O)(=O)Nc2ccc([N+](=O)[O-])cc2)c2ccccc2c1O ?
Resp: 4.63

Req: Quick check: pKi on Bcl-xL (Homo sapiens (Human)), item CC(C)CN(c1ccc(C(=O)O)c(O)c1)S(=O)(=O)c1ccc(Oc2ccccc2)cc1 [LC-4-099 13ag] ?
Resp: 4.74

These data points were gathered from patent US10858316B2.
